Consider the following molecules; for each one, report its Population Mitochondria Different-Phenotype (%).
test system: HEK-293T; test: Multiplex assay against HEK293T; format: toxicity, cell-based; conditions: human, 48 h, 10 µM, compound concentration 10 uM, replicate 1
Give a bare numeral; the unit % is implied.

[in] API: value(readout= Population Mitochondria Different-Phenotype (%), system= HEK-293T, query= CNCc1ccccc1-c1csc([C@H](C)Nc2nc(C)nc3cc(OC)c(OC)cc23)c1 )
[out] 100

[in] Recorded Population Mitochondria Different-Phenotype (%) for OC1(c2ccc(Cl)cc2)CCN(Cc2c[nH]c3ccccc23)CC1 with HEK-293T, please?
[out] 100

[in] Form: Entry = CC(C)(O)CNc1ncc(-c2ccnc(Nc3ccnc(Cl)c3)n2)c(CC2CC2)n1 | System = HEK-293T | Population Mitochondria Different-Phenotype (%) = ____
[out] 100

[in] API: value(readout=Population Mitochondria Different-Phenotype (%), system=HEK-293T) for record Cn1cc(-c2[nH]c3cc(NC(=O)[C@H](N)C4CCCCC4)cc4c3c2C=NNC4=O)cn1
[out] 77

[in] // map C[C@@]1(C(=O)Nc2ccc(F)nc2)CCCN1c1nc(Nc2cc(C3CC3)n[nH]2)c2cccn2n1 to recorded Population Mitochondria Different-Phenotype (%) (system: HEK-293T)
[out] 94

[in] Form field - read-out: Population Mitochondria Different-Phenotype (%); system: HEK-293T; submitted item: COc1cccc([C@@H](C)NCCCc2ccccc2Cl)c1.Cl [TECALCET HYDROCHLORIDE]
[out] 94
